- assay-comment: Pharmacokinetic experiments in male SD rats, single peroral administration
- Format: in vivo, rat
- experimental-conditions: rat, plasma; male SD rats, oral 5 mg/kg, 0.5% MC, 0.2% Tween80
Cmax values by entry
The response must be a number in ng/mL with no trailing unit.

[
  {
    "molecule": "N#Cc1ccnc(N2[C@H](C(=O)N(c3cccc(F)c3)[C@H](C(=O)NC3CC(F)(F)C3)c3ccccc3Cl)CCS2(=O)=O)c1 [Example 12]",
    "unit-annotation": "ng/mL",
    "Cmax": 556
  }
]

Next item in the queue.
// N#Cc1ccnc(N2C(=O)CC[C@H]2C(=O)N(c2cncc(F)c2)[C@H](C(=O)NC2CC(F)(F)C2)c2ccccc2Cl)c1 [AG-120, ivosidenib, reference compound] : Cmax value = 719
